Test: Pharmacokinetic behavior in mice (plasma concentration by LC-MS/MS)
Type: in vivo
Settings: male ICR mice, Intragastric administration (5 mg/kg)
Procedure: Three healthy ICR mice (SPF grade, from Beijing Vital River Laboratory Animal Technology Co., Ltd.), male, weighing 18-25 g, were intravenously injected with a compound (1 mg/kg) at a volume of 5 mL/kg. The compound was prepared using 5% DMSO+10% Solutol+85% Saline (w/v), and the animals were not fasted before the experiment. […]
molecules and their reported F%
Give the number first and the unit second.

Completed entries (count: 3):
# Molecule, F%
rows = [
    ("CC(C)(O)c1cc2nn([C@H]3CC[C@H](CCN4CCN5c6ccc(C7CCC(=O)NC7=O)cc6OCC5C4)CC3)cc2cc1NC(=O)c1cccc(C(F)(F)F)n1 (stereo partly shown) [Compound 1]", "93.86%"),
    ("COc1cc2nn([C@H]3CC[C@H](CCN4CCC5(CC4)OCc4cc(C6CCC(=O)NC6=O)ccc45)CC3)cc2cc1NC(=O)c1cccc(C(F)(F)F)n1 (stereo partly shown) [Compound 46]", "68.7%"),
    ("CC(C)(O)c1cc2nn([C@H]3CC[C@H](CCN4CCN5c6ccc(C7CCC(=O)NC7=O)cc6OC[C@@H]5C4)CC3)cc2cc1NC(=O)c1cccc(C(F)(F)F)n1 (stereo partly shown) [Compound 1-a]", "31.7%"),
]

Problem: Which F% is listed for CC(C)(O)c1cc2nn([C@H]3CC[C@H](CCN4CCN5c6ccc(C7CCC(=O)NC7=O)cc6OC[C@H]5C4)CC3)cc2cc1NC(=O)c1cccc(C(F)(F)F)n1 (stereo partly shown) [Compound 1-b] ?
Solution: 79.5%

---

Cmax by entry:
assay: Pharmacokinetic behavior in mice (plasma concentration by LC-MS/MS); assay type: in vivo; settings: mouse, plasma, po; male ICR mice, Intragastric administration (5 mg/kg); read-out: Cmax
Number in ng/mL, nothing else.

# Compound, Cmax / ng/mL
data = [
    ("CC(C)(O)c1cc2nn([C@H]3CC[C@H](CCN4CCC5(CC4)OC(=O)c4cc(C6CCC(=O)NC6=O)ccc45)CC3)cc2cc1NC(=O)c1cccc(C(F)(F)F)n1 (stereo partly drawn)", 844),
]

Problem: Quick one: Cmax for COc1cc2nn([C@H]3CC[C@H](CCN4CCC5(CC4)OCc4cc(C6CCC(=O)NC6=O)ccc45)CC3)cc2cc1C(=O)Nc1cccc(C(F)(F)F)n1 (stereo partly drawn) ?
Solution: 239

Problem: Look up Cmax for this compound: CC(C)(O)c1cc2nn([C@H]3CC[C@H](CCN4CCN5c6c(F)cc(C7CCC(=O)NC7=O)cc6OCC5C4)CC3)cc2cc1NC(=O)c1cccc(C(F)(F)F)n1 (stereo partly drawn)
Solution: 2130

---

Catalogue of DC50 readings, one per entry.
target: IRAK4-HiBiT fusion protein (Homo sapiens); construct: K562 from ATCC; experiment: Detection of HiBiT-IRAK4 proteolysis levels in K562 IRAK4-HiBiT cells (Nano-Glo HiBiT Lytic assay); format: cell-based; conditions: 2 h incubation, read-out: Absolute DC50

# Molecule, Val
rows = [
    ("CC(C)(O)c1cc2nn([C@H]3CC[C@H](CCN4CCN5c6c(F)cc(C7CCC(=O)NC7=O)cc6OCC5C4)CC3)cc2cc1NC(=O)c1cccc(C(F)(F)F)n1 (stereo partly drawn)", "9.85 nM"),
]

Problem: # query: DC50 of entry CC(C)(O)c1cc2nn([C@H]3CC[C@H](CCN4CCN5c6ccc(C7CCC(=O)NC7=O)cc6CCC5C4)CC3)cc2cc1NC(=O)c1cccc(C(F)(F)F)n1 (stereo partly drawn)
Solution: 1.11 nM

Problem: Quick one: DC50 of CC(C)(O)c1cc2nn([C@H]3CC[C@H](CCN4CCC5(CC4)OC(=O)c4cc(C6CCC(=O)NC6=O)ccc45)CC3)cc2cc1NC(=O)c1cccc(C(F)(F)F)n1 (stereo partly drawn) ?
Solution: 0.74 nM

---

assay: Pharmacokinetic behavior in mice (plasma concentration by LC-MS/MS); type: in vivo; conditions: mouse, plasma; male ICR mice, Intravenous injection (1 mg/kg); read-out: Cmax
Result type: Cmax (µg/mL)
Give your result in µg/mL as a bare value.

Before answering, review these 2 worked examples.
# Compound, Cmax, µg/mL
data = [
    ("COc1cc2nn([C@H]3CC[C@H](CCN4CCC5(CC4)OCc4cc(C6CCC(=O)NC6=O)ccc45)CC3)cc2cc1C(=O)Nc1cccc(C(F)(F)F)n1 (stereo partly drawn) [Compound 96]", 0.243),
    ("CC(C)(O)c1cc2nn([C@H]3CC[C@H](CCN4CCC5(CC4)OC(=O)c4cc(C6CCC(=O)NC6=O)ccc45)CC3)cc2cc1NC(=O)c1cccc(C(F)(F)F)n1 (stereo partly drawn) [Compound 93]", 0.783),
]

Now for the compound whose Cmax we want.
Problem: Consider the compound CC(C)(O)c1cc2nn([C@H]3CC[C@H](CCN4CCN5c6c(F)cc(C7CCC(=O)NC7=O)cc6OCC5C4)CC3)cc2cc1NC(=O)c1cccc(C(F)(F)F)n1 (stereo partly drawn) [Compound 4] and give its measured Cmax.
Solution: 1.32

---

Each entry below lists one item and its recorded half-life value.
Experiment: Pharmacokinetic behavior in mice (plasma concentration by LC-MS/MS)
Format: in vivo
Settings: mouse, plasma, po; male ICR mice, Intragastric administration (5 mg/kg)
Description: Three healthy ICR mice (SPF grade, from Beijing Vital River Laboratory Animal Technology Co., Ltd.), male, weighing 18-25 g, were intravenously injected with a compound (1 mg/kg) at a volume of 5 mL/kg. The compound was prepared using 5% DMSO+10% Solutol+85% Saline (w/v), and the animals were not fasted before the experiment. […]
Answer with a number only, understood to be in h.

# Compound, Measure unit, half-life
records = [
    ("CC(C)(O)c1cc2nn([C@H]3CC[C@H](CCN4CCC5(CC4)OC(=O)c4cc(C6CCC(=O)NC6=O)ccc45)CC3)cc2cc1NC(=O)c1cccc(C(F)(F)F)n1 (stereo partly drawn)", "h", 4.19),
    ("COc1cc2nn([C@H]3CC[C@H](CCN4CCC5(CC4)OCc4cc(C6CCC(=O)NC6=O)ccc45)CC3)cc2cc1C(=O)Nc1cccc(C(F)(F)F)n1 (stereo partly drawn)", "h", 14.7),
]

Now examine the next entry.
Problem: Fill blank: measured half-life of the compound CC(C)(O)c1cc2nn([C@H]3CC[C@H](CCN4CCN5c6c(F)cc(C7CCC(=O)NC7=O)cc6OCC5C4)CC3)cc2cc1NC(=O)c1cccc(C(F)(F)F)n1 (stereo partly drawn) is ____.
Solution: 14.8

---

target: IRAK4-HiBiT fusion protein (Homo sapiens, UniProt Q9NWZ3); construct: K562 from ATCC; assay: Detection of HiBiT-IRAK4 proteolysis levels in K562 IRAK4-HiBiT cells (Nano-Glo HiBiT Lytic assay); assay type: cell-based; settings: 2 h incubation, read-out: Absolute DC50
Sequence (Q9NWZ3 whole entry, the tested form may be a part): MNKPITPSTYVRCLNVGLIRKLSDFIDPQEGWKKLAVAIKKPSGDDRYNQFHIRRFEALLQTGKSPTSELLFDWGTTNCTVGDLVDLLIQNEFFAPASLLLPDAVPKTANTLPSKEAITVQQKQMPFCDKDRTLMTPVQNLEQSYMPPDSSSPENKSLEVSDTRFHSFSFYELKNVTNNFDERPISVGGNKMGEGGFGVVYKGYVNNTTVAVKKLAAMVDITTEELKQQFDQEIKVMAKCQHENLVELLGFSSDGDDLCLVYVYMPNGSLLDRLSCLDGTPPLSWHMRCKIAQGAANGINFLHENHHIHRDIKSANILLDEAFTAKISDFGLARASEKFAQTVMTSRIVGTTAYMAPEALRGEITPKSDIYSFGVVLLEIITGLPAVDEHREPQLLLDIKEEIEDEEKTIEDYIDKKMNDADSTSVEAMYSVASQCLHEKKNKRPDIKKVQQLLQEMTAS
DC50 values by entry
Output spec: scalar in nM, unitless text.

Look over these answered cases.
# Compound, Val
records = [
    ("CC(C)(O)c1cc2nn([C@H]3CC[C@H](CCN4CCN5c6ccc(C7(C)CCC(=O)NC7=O)cc6OCC5C4)CC3)cc2cc1NC(=O)c1cccc(C(F)(F)F)n1 (some centres unmarked)", 39),
    ("CC(C)(O)c1cc2nn(C3CCC(CCN4CCN5c6c(F)cc(NC7CCC(=O)NC7=O)cc6OCC5C4)CC3)cc2cc1NC(=O)c1cccc(C(F)(F)F)n1 (centres unmarked)", 16.8),
    ("[2H]C1(c2ccc3c(c2)OCC2CN(CCC4CCC(n5cc6cc(NC(=O)c7cccc(C(F)(F)F)n7)c(C(C)(C)O)cc6n5)CC4)CCN32)CCC(=O)NC1=O (centres unmarked)", 7.2),
    ("CC(C)(O)c1cc2nn([C@H]3CC[C@H](CCN4CCN5c6ccc(N7CCC(=O)NC7=O)cc6CCC5C4)CC3)cc2cc1NC(=O)c1cccc(C(F)(F)F)n1 (some centres unmarked)", 4.62),
]

--- query ---
Problem: Name the reported DC50 value associated with the compound CN1C(=O)C2(CCN(CC[C@H]3CC[C@H](n4cc5cc(NC(=O)c6cccc(C(F)(F)F)n6)c(C(C)(C)O)cc5n4)CC3)CC2)c2ccc(C3CCC(=O)NC3=O)cc21 (some centres unmarked)
Solution: 14

---

# Cmax values compiled below
experiment: Pharmacokinetic behavior in mice (plasma concentration by LC-MS/MS); type: in vivo; conditions: male ICR mice, Intragastric administration (5 mg/kg)
// return numeric value only (unit: ng/mL, not printed)

# Molecule, Measure unit, Cmax
data = [
    ("CC(C)(O)c1cc2nn([C@H]3CC[C@H](CCN4CCN5c6ccc(C7CCC(=O)NC7=O)cc6OC[C@H]5C4)CC3)cc2cc1NC(=O)c1cccc(C(F)(F)F)n1 (stereo partly shown)", "ng/mL", 2623),
    ("CC(C)(O)c1cc2nn([C@H]3CC[C@H](CCN4CCN5c6ccc(C7CCC(=O)NC7=O)cc6OCC5C4)CC3)cc2cc1NC(=O)c1cccc(C(F)(F)F)n1 (stereo partly shown)", "ng/mL", 5153),
    ("COc1cc2nn([C@H]3CC[C@H](CCN4CCC5(CC4)OCc4cc(C6CCC(=O)NC6=O)ccc45)CC3)cc2cc1NC(=O)c1cccc(C(F)(F)F)n1 (stereo partly shown)", "ng/mL", 207),
]

Next item in the queue.
Problem: Need Cmax, item CC(C)(O)c1cc2nn([C@H]3CC[C@H](CCN4CCN5c6ccc(C7CCC(=O)NC7=O)cc6OC[C@@H]5C4)CC3)cc2cc1NC(=O)c1cccc(C(F)(F)F)n1 (stereo partly shown)
Solution: 1067

Reference source for all entries: patent EP4696691A1
